All values here come from paper PMC7865276.

Target: lipase from porcine pancreas, TYPE II (Sus scrofa, UniProt P00591)
Construct: lipase from porcine pancreas, TYPE II; purchased Sigma-Aldrich; host or cells: porcine pancreas (tissue preparation)
Sequence (P00591 whole entry): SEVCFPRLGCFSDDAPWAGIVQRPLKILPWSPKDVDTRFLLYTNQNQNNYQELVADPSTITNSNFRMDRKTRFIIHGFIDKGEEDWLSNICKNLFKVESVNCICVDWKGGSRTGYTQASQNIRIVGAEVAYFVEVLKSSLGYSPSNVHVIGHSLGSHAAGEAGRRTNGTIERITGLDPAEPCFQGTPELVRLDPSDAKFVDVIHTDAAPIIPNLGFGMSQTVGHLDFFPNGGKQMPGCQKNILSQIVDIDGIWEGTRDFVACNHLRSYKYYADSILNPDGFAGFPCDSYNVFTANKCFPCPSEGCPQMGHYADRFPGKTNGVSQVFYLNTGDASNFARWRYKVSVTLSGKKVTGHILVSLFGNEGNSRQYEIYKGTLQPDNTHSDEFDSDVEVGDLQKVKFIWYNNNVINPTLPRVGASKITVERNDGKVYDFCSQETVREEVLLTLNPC
Test: pancreatic lipase inhibitory activity (Lipase Kit S, BALB substrate)
Assay type: biochemical
Settings: mean ± S.E.M. of three experiments in triplicate; tested at 0.45, 0.90, 4.5 mM
Description: The pancreatic lipase activity of each test sample was measured by a modified method using a commercially available kit (Lipase Kit S, Dainippon Pharmaceutical). […] Lipase activity was determined by measuring the absorbance of the resulting 5-thio-2-nitrobenzoate anion at 412 nm using a microplate reader. The inhibition rate was calculated by the following formula: Inhibition rate (%) = [1 − (ΔAsample − ΔAblank)/(ΔAcontrol − ΔAblank)] × 100. […]
endpoint.name: pIC50
FYI, pIC50 means -log10 of a concentration in mol per litre.

Recorded result, COC(=O)/C(C)=C/[C@H]1[C@H](O)O[C@H]2C[C@@]3(C)C4=C(CC[C@]3(C)[C@@]2(O)[C@@H]1C)[C@@]1(C)CC[C@H](O[C@@H]2O[C@H](CO)[C@@H](O)[C@H](O)[C@H]2O[C@@H]2O[C@H](CO)[C@@H](O)[C@H](O)[C@H]2O[C@@H]2O[C@@H](C)[C@H](O)[C@@H](O)[C@H]2O)[C@](C)(CO)[C@@H]1CC4 [Compound 5, peruvianoside B] , pIC50: 2.85

Record COC(=O)/C(C)=C/[C@H]1[C@H](O)O[C@H]2C[C@@]3(C)C4=C(CC[C@]3(C)[C@@]2(O)[C@@H]1C)[C@@]1(C)CC[C@H](O[C@@H]2O[C@H](CO)[C@@H](O)[C@H](O)[C@H]2O[C@@H]2O[C@H](CO)[C@@H](O)[C@H](O)[C@H]2O[C@@H]2O[C@@H](C)[C@H](O)[C@@H](O)[C@H]2O)C(C)(C)[C@@H]1CC4 [Compound 4, peruvianoside A] , field pIC50: 2.85

The compound identified as COC(=O)/C(C)=C/[C@H]1[C@@H](OC)O[C@H]2C[C@@]3(C)C4=C(CC[C@]3(C)[C@@]2(O)[C@@H]1C)[C@@]1(C)CC[C@H](O[C@@H]2O[C@H](CO)[C@@H](O)[C@H](O)[C@H]2O[C@@H]2O[C@H](CO)[C@@H](O)[C@H](O)[C@H]2O[C@@H]2O[C@@H](C)[C@H](O)[C@@H](O)[C@H]2O)C(C)(C)[C@@H]1CC4 [Compound 3, 23β-methyl-peruvianoside A] registered its pIC50 at 3.23

Input `CCC(=O)[C@@H]1C[C@@H](C)[C@]2(CC[C@@]3(C)C4=C(CC[C@@]32C)[C@@]2(C)CC[C@H](O[C@@H]3O[C@H](CO[C@@H]5OC[C@H](O)[C@H](O)[C@H]5O[C@@H]5O[C@H](CO)[C@@H](O)[C@H](O[C@@H]6O[C@H](CO)[C@@H](O)[C@H](O)[C@H]6O)[C@H]5O[C@@H]5O[C@@H](C)[C@H](O)[C@@H](O)[C@H]5O)[C@@H](O)[C@H](O)[C@H]3O)[C@](C)(CO)[C@@H]2CC4)O1` . Output pIC50: 3.04
